Test system: T-47D breast
Experiment: NCI-60 one-dose screen, 48 h (100 = growth as untreated, 0 = no growth, -100 = all killed)
Conditions: 10 µM unless noted
About 83,000 compounds went through this panel and 20% of them were active in at least one assay; those are over-represented in the sample as a whole. Calls of active or inactive are those of the source. The calls were made as follows: active = growth percent below 10; inactive = the rest.
RESULT TYPE: growth

MOLECULE: C=CC(=O)N1CC=C(c2cc3c(N[C@H](C)c4ccccc4)ncnc3[nH]2)CC1
growth: 71.6% (inactive)

IN: # return growth of N/C(=N\C(N)=N\c1nc2ccccc2s1)c1ccc(C(F)(F)F)cc1 (system: T-47D breast)
OUT: 69% (inactive)

IN: Quote growth with test system T-47D breast for COc1ccc([C@@H]2[C@@H](O)C(=O)N2c2cc(OC)c(OC)c(OC)c2)cc1F
OUT: 68% (inactive)

----------
System: OVCAR-4 ovarian
Assay: NCI-60 one-dose screen, 48 h (100 = growth as untreated, 0 = no growth, -100 = all killed)
Conditions: 10 µM unless noted
Compounds without any hit were thinned out: in the full panel of roughly 83,000, 20% have a hit. Activity calls are given as the source filed them. The calls were made as follows: active = growth percent below 10; inactive = the rest.
Listed here are compounds together with their documented growth.

Below are worked cases with known answers.
COMPOUND: CCOc1ccccc1NC1=C(Cl)C(=O)c2nc(C)ccc2C1=O
growth: -92% (active)
--
COMPOUND: O=S(=O)(NCCNc1nccc(-n2cnc3ccccc32)n1)c1ccc(C(F)(F)F)cc1
growth: 28.4% (inactive)
--
COMPOUND: CCOc1cccc(-c2nc3sccn3c2-c2ccnc(S(C)(=O)=O)n2)c1
growth: 87% (inactive)

IN: Give the value of growth reported for the following: C#CCOc1ccc(/C=N\Nc2nc(-c3ccc(C)cc3)cs2)cc1OC
OUT: 76.8% (inactive)

IN: Answer with the recorded growth for the compound listed here: C#CCn1cccc1CNc1ccc(OC)cc1
OUT: -63.8% (active)

IN: Answer with reported growth of c1cn2c(ccc3nc(-c4cn[nH]c4)c4c(c32)CCCC4)n1
OUT: 77.9% (inactive)

IN: Query growth for Nc1nc(N)c2c(n1)NC(c1ccc(C(F)(F)F)cc1)CC(c1ccc(Nc3nc(NCCO)nc(N4CCOCC4)n3)cc1)=N2 (stereo not drawn)
OUT: 79.5% (inactive)

IN: Give me measured growth, please, for this compound: O=S(=O)(NC1c2ccccc2C[C@H]1O)c1ccc(Cl)cc1Cl (stereo partly drawn)
OUT: 97.4% (inactive)

IN: State its growth: Nc1nc(-c2cccc([N+](=O)[O-])c2)c(N=Nc2ccccc2)s1
OUT: 59.2% (inactive)

IN: Answer with the recorded growth for the compound listed here: O=C(CN1CCN(c2cc(=O)n(-c3ccccc3)c3ccccc23)CC1)Nc1ccc(F)cc1
OUT: 22.7% (inactive)

IN: Given the compound NS(=O)(=O)c1ccc(-n2cc(-c3cccc(NC(=O)c4ccc(N5CCOCC5)c(C(F)(F)F)c4)c3)nn2)cc1 , write its reported growth.
OUT: 15% (inactive)

IN: Tell me growth reported for CCCn1cnc2c(c1=N)C(c1ccc(Cl)cc1)c1sc3c(CC)cccc3c1O2 (stereo not drawn)
OUT: 89.1% (inactive)

IN: Query growth for CCNC(=O)N1CCc2cc(OC)c(OCCc3ccc(OC)cc3)cc2C1c1ccc(Cl)cc1C (stereo not drawn)
OUT: 51.7% (inactive)

----------
Tested on: NCI/ADR-RES ovarian
Assay: NCI-60 one-dose screen, 48 h (100 = growth as untreated, 0 = no growth, -100 = all killed)
Details: 10 µM unless noted
The panel holds about 83,000 compounds, 20% with a hit somewhere; the sample as a whole holds those more often. The source made the active and inactive calls. Rule for the calls: active = growth percent below 10; inactive = the rest.
RESULT TYPE: growth

Some compounds with known growth results, for comparison:
COMPOUND: CCNC(=O)N1CCc2cc(OC)c(OCCc3ccc(OC)c(N)c3)cc2C1c1ccc(C)cc1C (stereo unspecified)
RESULT TYPE: growth
OBSERVED VALUE: 17.9% (inactive)
--
COMPOUND: O=C(CCC(=O)N1CCOCC1)OCCCCCCSc1ccc([N+](=O)[O-])c2nonc12
RESULT TYPE: growth
OBSERVED VALUE: 2.86% (active)
--
COMPOUND: Cc1nc2ncc(-c3ccc4ncnc(NCc5ccccc5)c4c3)cc2[nH]1
RESULT TYPE: growth
OBSERVED VALUE: 104% (inactive)
--
COMPOUND: C#Cc1nc(C(=O)NCCC(=O)Nc2ccc(NC(=O)c3ccc(/C=C/C(=O)c4nccn4C)cc3)cc2)cs1
RESULT TYPE: growth
OBSERVED VALUE: 49.2% (inactive)
--
COMPOUND: CCO/C=N/C1=C(C#N)C(c2ccc(F)cc2)c2sc3c(CC)cccc3c2O1 (stereo unspecified)
RESULT TYPE: growth
OBSERVED VALUE: 9.33% (active)

IN: Please report growth for the following compound: COc1cc2oc(-c3cccc(C(=O)N[C@@H](CC(C)C)C(=O)OC(C)(C)C)c3)cc(=O)c2c(OC)c1OC
OUT: 49% (inactive)

IN: Specify growth for COc1cc2c(cc1OC)C(Sc1ccc(C)cc1)c1c(nc(N)c(C#N)c1N)O2 (stereo unspecified) and stop.
OUT: -32.1% (active)

IN: Identify measured growth corresponding to COc1ccccc1-n1cc(C#N)c(N)c1C(=O)c1ccc(C)cc1
OUT: 60.2% (inactive)

IN: Supply recorded growth for O=C(Nc1ccc(N=Cc2c(O)[nH]c3ccccc23)cc1)Nc1nccs1 here.
OUT: 40.8% (inactive)

IN: // Input: COc1ccc2[nH]cc(-c3csc4nc(-c5ccccc5)cn34)c2c1 . Output its growth only.
OUT: 5.97% (active)

IN: Tell me its growth given Cc1cc(C)n(C(=O)c2sc(=S)n(-c3ccccc3)c2N=Nc2c(N)n[nH]c2N)n1 as the entry.
OUT: 115% (inactive)

----------
Tested on: U251 CNS
Assay: NCI-60 one-dose screen, 48 h (100 = growth as untreated, 0 = no growth, -100 = all killed)
Details: 10 µM unless noted
About 83,000 compounds went through this panel and 20% of them were active in at least one assay; those are over-represented in the sample as a whole.
Note to self: class = bucket of growth, per low-valued = under 30%, mid-valued = from 30% up to 90%, high-valued = 90% and over

Known results for molecules:
MOLECULE: O=C(Nc1ccc2c(ccn2Cc2ccccn2)c1)c1cnccn1
TESTED TARGET: U251 CNS
DISCRETE LABEL: high-valued
--
MOLECULE: C#Cc1ccc(C(=O)NCc2ccc(/C=C/C(=O)c3nccn3C)cc2)cc1
TESTED TARGET: U251 CNS
DISCRETE LABEL: low-valued

IN: Given COc1ccc(NC(=O)Nc2ccc3c(ccn3C(=O)c3cccc(F)c3)c2)cc1 , name the class its growth places it in.
OUT: mid-valued

IN: For the record O=C(CN1CCN(c2cc(=O)n(-c3ccccc3)c3ccccc23)CC1)Nc1ccc(F)cc1 , report the class its growth corresponds to.
OUT: mid-valued

IN: Into which category would you place O=c1[nH]c(Sc2sc3ccc(Cl)cc3c2CBr)nc(=S)[nH]1 ?
OUT: mid-valued

IN: Lab note: which band did C=CCN(C)S(=O)(=O)/N=C1\NC(=O)NC1=C(Cl)Cl land in?
OUT: low-valued

IN: Categorize the following entry: Cn1ccnc1C(=O)/C=C/c1ccc(CNC(=O)c2c(F)c(F)c(F)c(F)c2F)cc1
OUT: mid-valued

IN: Which bin should I file CCCn1cnc2c(c1=N)C(c1ccc(OC)cc1)c1sc3c(C)cccc3c1O2 (centres undefined) under?
OUT: low-valued

IN: Classify this molecule: CCCC(=O)NC(c1cccnc1)c1cc(C(C)(C)C)c2cccnc2c1O (centres undefined)
OUT: low-valued

IN: Hey, which category is CC(=O)c1ccc(Nc2nc(SCC(C)C)nc(-c3ccccc3)c2C#N)cc1 in, do you know?
OUT: mid-valued

IN: Exam item: assign CCCCCCCn1cc2c(NCCc3ccccc3)ncnc2n1 to the correct category.
OUT: high-valued

IN: Field: class (growth) — entry: Cc1ccc2c(c1)C13C(=C2Br)CCCN1C(=O)c1ccccc13 (centres undefined)
OUT: high-valued

IN: Would you mind sorting CN(C)CCNC(=O)c1ccc(-c2nc3ccc4[nH]ncc4c3c3c2COCC3)cc1 into the appropriate category?
OUT: low-valued

IN: Band for Cc1ccc(CSc2nc(-c3ccc(Cl)cc3)c(C#N)c(N3CCOCC3)n2)cc1 ?
OUT: high-valued

IN: Returns: class label. Input: Cc1ccc(-n2cc(/C=N/NC(=O)c3ccncc3)c(-c3ccc(S(C)(=O)=O)cc3)n2)cc1
OUT: high-valued

IN: Form: Item = CNC(=O)c1cc(-c2ccc(NS(=O)(=O)c3ccc(C)cc3)cc2)nc2cccnc12 ; Class = ?
OUT: high-valued

IN: Into which bin does this molecule go? COc1c(N2CC3CCCNC3C2)c(F)cc2c(=O)c(C(=O)N/N=C/c3ccc(N(C)C)cc3)cn(C3CC3)c12 (centres undefined)
OUT: mid-valued

IN: Category lookup for the molecule CCn1c(SCC(=O)Nc2cccc(C(=O)/C=C/c3ccc(C)cc3)c2)nc2ccccc2c1=O
OUT: mid-valued

IN: Category of O=C1C(c2ccccc2)=C(N2CCc3ccccc32)OC1(Cl)Cl :
OUT: mid-valued
